Target: T1, Human T cell receptor on human primary T cells (human, UniProt P01848 1-140; P01850 1-176)
T1 TCR alpha (looked up): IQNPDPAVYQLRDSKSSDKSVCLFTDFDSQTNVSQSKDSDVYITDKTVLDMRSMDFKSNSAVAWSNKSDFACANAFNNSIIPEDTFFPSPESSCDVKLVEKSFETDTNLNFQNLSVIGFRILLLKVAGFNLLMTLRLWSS
T1 TCR beta (looked up): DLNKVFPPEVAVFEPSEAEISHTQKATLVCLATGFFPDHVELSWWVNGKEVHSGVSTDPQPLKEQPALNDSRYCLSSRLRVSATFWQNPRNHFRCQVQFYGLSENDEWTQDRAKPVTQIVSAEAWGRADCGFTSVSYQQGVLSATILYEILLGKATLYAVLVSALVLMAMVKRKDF
Assay: cell-based or functional assay
For each entry below, report its % lysis, KG-1a, Human T cell mediated killing value.
Please answer in the form of a number followed by its unit of measurement.

Quick check: % lysis, KG-1a, Human T cell mediated killing of T017000634 (bispecific antibody, also called A0110056A10(E1D)-35GS-T0170056G05(L11V, D27Y, L34Y, M77T, K83R, V89L, F91Y, F95L, Y99W)-A) DVQLVESGGGLVQAGGSLRLSCAASGITSKINDMGWYRQTPGNYREWVASITATGTTNYRDSVKGRFTISRDNAKSTVYLQMNSLKPEDTTVYYCNTFPPISNFWGQGTLVTVSSGGGGSGGGGSGGGGSGGGGSGGGGSGGGGSGGGGSEVQLVESGGGVVQPGGSLRLSCVASGYVHKINFYGWYRQAPGKEREKVAHISIGDQTDYADSAKGRFTISRDESKNTVYLQMNSLRPEDTALYYCRALSRIWPYDYWGQGTLVTVSSA ?
49%

Quick check: % lysis, KG-1a, Human T cell mediated killing of T017000128 (bispecific antibody) DVQLVESGGGLVQPGGSLRLSCVASGDVHKINFLGWYRQAPGKEREKVAHISIGDQTDYADSAKGRFTISRDESKNMVYLQMNSLKPEDTAVYFCRAFSRIYPYDYWGQGTLVTVSSGGGGSGGGGSGGGGSGGGGSGGGGSGGGGSGGGGSEVQLVESGGGLVQAGGSLRLSCAASGITSKINDMGWYRQTPGNYREWVASITATGTTNYRDSVKGRFTISRDNAKSTVYLQMNSLKPEDTTVYYCNTFPPISNFWGQGTLVTVSSA ?
51%

Quick check: % lysis, KG-1a, Human T cell mediated killing of T017000131 (bispecific antibody, also called A0110056A10(E1D)-35GS-T0170056G05-A) DVQLVESGGGLVQAGGSLRLSCAASGITSKINDMGWYRQTPGNYREWVASITATGTTNYRDSVKGRFTISRDNAKSTVYLQMNSLKPEDTTVYYCNTFPPISNFWGQGTLVTVSSGGGGSGGGGSGGGGSGGGGSGGGGSGGGGSGGGGSEVQLVESGGGLVQPGGSLRLSCVASGDVHKINFLGWYRQAPGKEREKVAHISIGDQTDYADSAKGRFTISRDESKNMVYLQMNSLKPEDTAVYFCRAFSRIYPYDYWGQGTLVTVSSA ?
29%

Quick check: % lysis, KG-1a, Human T cell mediated killing of T017000633 (bispecific antibody) DVQLVESGGGVVQPGGSLRLSCVASGYVHKINFYGWYRQAPGKEREKVAHISIGDQTDYADSAKGRFTISRDESKNTVYLQMNSLRPEDTALYYCRALSRIWPYDYWGQGTLVTVSSGGGGSGGGGSGGGGSGGGGSGGGGSGGGGSGGGGSEVQLVESGGGLVQAGGSLRLSCAASGITSKINDMGWYRQTPGNYREWVASITATGTTNYRDSVKGRFTISRDNAKSTVYLQMNSLKPEDTTVYYCNTFPPISNFWGQGTLVTVSSA ?
56%
